Subject of test: furin, P09958
Sequence (P09958 whole entry): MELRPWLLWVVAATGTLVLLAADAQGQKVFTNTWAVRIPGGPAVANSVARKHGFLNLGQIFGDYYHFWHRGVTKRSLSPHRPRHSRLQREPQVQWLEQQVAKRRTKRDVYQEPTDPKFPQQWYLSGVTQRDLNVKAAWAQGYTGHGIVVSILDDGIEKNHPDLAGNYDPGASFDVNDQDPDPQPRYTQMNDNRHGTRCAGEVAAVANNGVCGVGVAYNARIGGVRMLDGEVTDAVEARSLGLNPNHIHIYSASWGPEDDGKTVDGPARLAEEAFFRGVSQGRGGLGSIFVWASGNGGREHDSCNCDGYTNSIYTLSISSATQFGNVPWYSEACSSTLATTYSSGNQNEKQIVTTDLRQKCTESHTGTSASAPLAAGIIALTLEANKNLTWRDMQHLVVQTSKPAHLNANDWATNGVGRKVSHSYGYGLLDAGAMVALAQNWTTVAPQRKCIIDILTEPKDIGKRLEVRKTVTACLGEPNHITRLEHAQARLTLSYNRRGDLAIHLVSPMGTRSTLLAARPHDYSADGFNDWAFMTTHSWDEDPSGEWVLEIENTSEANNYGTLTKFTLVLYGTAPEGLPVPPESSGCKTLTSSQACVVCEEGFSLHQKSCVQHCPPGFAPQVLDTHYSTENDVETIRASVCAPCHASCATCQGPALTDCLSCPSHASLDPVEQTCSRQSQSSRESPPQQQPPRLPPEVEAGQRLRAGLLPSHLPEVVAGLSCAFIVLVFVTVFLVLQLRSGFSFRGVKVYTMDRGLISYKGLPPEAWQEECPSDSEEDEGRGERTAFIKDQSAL
Assay method text: furin cleavage Z-score vs untreated control; higher = more cleavage, active = 3.5 or more, inactive = 1 or less, 8 variable residues between constant flanks;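 note: purified furin at 1:10 enzyme:substrate in 50 mM HEPES pH 7.5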
Condition context: 7.5 min
This is one part of the list. No count for the full screen is at hand.
Readout: furin cleavage Z-score
// return a plain number; no unit text

Consider the worked cases shown below.
CAYNPPLVETAGNASASA [HC1307] = -1.06
CANVPCHRPSAGNASASA [HC2321] = 0.0675
CAQMVIIKLGAGNASASA [HC628] = 1.18
CARNIRSGVHAGNASASA [FS-3006] = -0.391

**Query** # lookup: furin cleavage Z-score of CANSSIVYEAAGNASASA [HC265]
**Result** 0.639

**Query** # lookup: furin cleavage Z-score of CARTPCSAHLAGNASASA [HC2473]
**Result** 0.852

**Query** # lookup: furin cleavage Z-score of CARTGVRTITAGNASASA [HC800]
**Result** -0.25
